Ref: paper PMC9482650

Target: T1, LIN7A, O14910
T1 sequence (O14910 103-200, limits assumed, looked up): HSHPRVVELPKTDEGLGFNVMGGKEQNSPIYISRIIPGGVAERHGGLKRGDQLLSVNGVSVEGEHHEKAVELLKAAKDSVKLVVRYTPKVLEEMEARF
Experiment: holdup assay
Parameters: key: below the threshold = too weak to quantify, mostly under pKd 3.1 to 4
Settings: plain residues with an end cap or a label only (N-terminal biotin on a linker: ttds)
readoutName: pKd

Recorded results for 7 binders are shown here.
Data request, read-out pKd, for PFRSRSPSEV [GPR6, P46095]
below the threshold

So what's the measured pKd for this one? SSIDLWETAL [SLC15A5, A6NIM6]
4.27

Would you mind telling me what pKd value was observed for FVETQHQTQV [FAT3, Q8TDW7] ?
below the threshold

Please give the measured pKd for this binder: KQVVPFSSSV [GDA, Q9Y2T3]
below the threshold

Form field: reported pKd of SHSSKGETAV [FZD7, O75084]
below the threshold

Given NPDALPETLV [ARHGAP6, O43182] , state its recorded pKd.
3.61

Could you tell me which pKd is on file for GARVSKETPL [MAPK12, P53778] ?
below the threshold

Now for the binder whose pKd we want.
Tell me the measured pKd of PPRQRSETQV [HPV82-E6, Q9IR59] , please.
below the threshold
